Entry source: PubChem BioAssay AID588780

Test system: H9c2 cardiomyocytes, 2-deoxyglucose stress, ATP luminescence, 2 h
TEST SUMMARY: H9c2 cell survival under 2-deoxyglucose stress – uHTS hits, dose response (AID 588780)
Activity calls are given as the source filed them.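 How the source made its calls: active means compounds whose fitted half-maximal concentration in the cell-protection dose series is at or below a set limit; inactive means the rest.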
Your reply should match one of these outcome classes. true (1) (active), false (0) (inactive)

The examples below pair each entry with its known result.
                      smiles_representation  discrete_label
0  CCOC(=O)c1cnc2ccc(C(=O)OC)cc2c1NCCc1ccc(OC)c(OC)c1       false (0)
1  N#CC1(NC(=O)COC(=O)Cn2[nH]c(=O)c3ccccc3c2=O)CCCCC1       false (0)
2  NC(=O)c1cc2ccccc2o/c1=N\NC(=O)c1ccc(F)cc1        true (1)

Fill in: this test's call for "O=c1[nH]nc(CNc2ccc(O)cc2)c2ccccc12" is ___
false (0)

Fill in: this test's call for "CCN(C[C@H]1N[C@@](C)(C(=O)OC)[C@H]2C(=O)N(Cc3ccccc3)C(=O)[C@@H]12)C(=O)c1ccc(C(C)(C)C)cc1" is ___
false (0)

Fill in: this test's call for "COc1cc2[nH]c(=O)n3nc(-c4ccccc4)nc3c2cc1OC" is ___
false (0)

Fill in: this test's call for "CC(C)=NNc1cnnc2ccc([N+](=O)[O-])cc12" is ___
true (1)

Fill in: this test's call for "N#Cc1c(-c2ccco2)cc(-c2ccccn2)nc1N" is ___
true (1)

Fill in: this test's call for "Cc1ccccc1NC(=O)COc1cccc2c1CCNC2=O" is ___
false (0)

Fill in: this test's call for "COc1cc2c(C(=O)NCc3ccccn3)cn(CC(C)C)c(=O)c2cc1OC" is ___
false (0)

---

System: H9c2 cardiomyocytes, 2-deoxyglucose stress, ATP luminescence, 2 h
TEST SUMMARY: H9c2 cell survival under 2-deoxyglucose stress – uHTS hits, dose response (AID 588780)
Activity calls are given as the source filed them.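 The calls were made as follows: active = compounds whose fitted half-maximal concentration in the cell-protection dose series is at or below a set limit; inactive = the rest.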
Your reply should match one of these outcome classes. t = active, f = inactive

The examples below pair each entry with its known result.
                                   molecule                                    target  discrete_label
0     O=C(COc1ccc(F)cc1)Nc1nc(-c2ccccn2)cs1  H9c2 cardiomyocytes, 2-deoxyglucose stress, ATP luminescence, 2 h               f
1  COc1ccc(Cl)cc1NC(=O)CN(C)C(=O)Cc1n[nH]c(=O)c2ccccc12  H9c2 cardiomyocytes, 2-deoxyglucose stress, ATP luminescence, 2 h               f
2  CCOc1cccc(-c2c(C(=O)N/N=C(\C)c3ccccn3)nnn2-c2nonc2N)c1  H9c2 cardiomyocytes, 2-deoxyglucose stress, ATP luminescence, 2 h               f
3  CCN(CC)C(=O)c1ccc(-c2nnc(Nc3ccc(O)cc3)c3ccccc23)cc1  H9c2 cardiomyocytes, 2-deoxyglucose stress, ATP luminescence, 2 h               f
4     COc1ccc(NCc2cc3cc(OC)ccc3[nH]c2=O)cc1  H9c2 cardiomyocytes, 2-deoxyglucose stress, ATP luminescence, 2 h               f
5  CC(=O)c1ccc(-c2ccc(C(=O)Nc3nc(-c4ccccn4)cs3)o2)cc1  H9c2 cardiomyocytes, 2-deoxyglucose stress, ATP luminescence, 2 h               f

Fill in: this test's call for "COc1cccc(C(=O)CSc2nnc(-c3cc(OC)c(OC)c(OC)c3)o2)c1" is ___
f

Fill in: this test's call for "Cc1c(O)c(CN2CCCCC2)cc2c1oc(=O)c1ccccc12" is ___
f

Fill in: this test's call for COc1ccccc1CN(C(=O)CNC(=O)c1ccco1)C(C(=O)NCC1CCCO1)c1ccccc1 (centres undefined) is ___
t
